Just for reference, ChEMBL document CHEMBL4689842 is where these values come from.

Measured Population Mitochondria Different-Phenotype (%) values are reported for all entries that follow.
- Test system: U2OS
- Measurement Description: Multiplex assay against U2OS
- Assay type: toxicity, cell-based
- Assay Conditions: human, 48 h, 1 µM, compound concentration 1 uM, replicate 2
Could you give me the number in %? Just the number is fine.

Sample records with Population Mitochondria Different-Phenotype (%):
{"Compound": "O=c1cc(N2CCOCC2)oc2c(-c3cccc4c3sc3ccccc34)cccc12", "Value": 12}
{"Compound": "CC(C)OC(=O)N1CCC(Oc2ncnc3c2cnn3-c2ccc(S(C)(=O)=O)cc2F)CC1", "Value": 10}
{"Compound": "CC(C)c1noc(N2CCC(COc3ccc(-c4ccc(S(C)(=O)=O)cc4)nc3)CC2)n1", "Value": 13}
{"Compound": "COc1ccccc1CN[C@H]1C2CCN(CC2)[C@H]1C(c1ccccc1)c1ccccc1", "Value": 12}
{"Compound": "CCCSc1nc(N[C@@H]2C[C@H]2c2ccc(F)c(F)c2)c2nnn([C@@H]3C[C@H](OCCO)[C@@H](O)[C@H]3O)c2n1", "Value": 12}

Need Population Mitochondria Different-Phenotype (%), item CCc1nn(CCCN2CCN(c3cccc(Cl)c3)CC2)c(=O)n1CCOc1ccccc1.Cl [NEFAZODONE HYDROCHLORIDE]
18

Need Population Mitochondria Different-Phenotype (%), item COC(=O)C1=C(C)NC(C)=C(C(=O)OCCCN2CCC(c3ccccc3)(c3ccccc3)CC2)[C@H]1c1cccc([N+](=O)[O-])c1
100

Need Population Mitochondria Different-Phenotype (%), item Cl.O=C(O)c1cc(-c2ccc(C3CCNCC3)cc2)c2ccc(-c3ccc(C(F)(F)F)cc3)cc2c1
11
